Origin of values: ChEMBL document CHEMBL4308921

Assay: Brain to serum permeability coefficient, Kp of the compound in C57BL/6 mouse assessed as sobetirome level at 3.05 umol/kg, ip after 1 hr by LC-MS/MS analysis
Type: ADME, organism-based
Property Measured: Kp

| Compound | Kp |
| --- | --- |
| Cc1cc(OCC(=O)NO)cc(C)c1Cc1ccc(O)c(C(C)C)c1 | 0.03 |

a = Cc1cc(OCC(=O)Nc2cccc(O)c2)cc(C)c1Cc1ccc(O)c(C(C)C)c1
b = Cc1cc(OCC(N)=O)cc(C)c1Cc1ccc(O)c(C(C)C)c1
c = Cc1cc(OCC(=O)NN)cc(C)c1Cc1ccc(O)c(C(C)C)c1
d = Cc1cc(OCC(=O)N(C)C)cc(C)c1Cc1ccc(O)c(C(C)C)c1
Sort (4 compounds) by Kp: min first. // ordering of labels required in reply
a, c, b, d
(a: 0.04, c: 0.58, b: 1.17, d: 3.17)

a = CCCNC(=O)COc1cc(C)c(Cc2ccc(O)c(C(C)C)c2)c(C)c1
b = Cc1cc(OCC(=O)NCCNS(C)(=O)=O)cc(C)c1Cc1ccc(O)c(C(C)C)c1
Quick one: lower Kp, a or b ? Respond using the label that marks the chosen record.
b
(b: 0.06, a: 1.15)
